# experimentalTarget: T1, Peptide 8: Biotin-AEAAAKEAAAKEAAAKEAAAKAAA-Tyr-acid (N-terminal biotin; C-terminal acid)
# T1 construct: control peptide without PC
# T1 peptide: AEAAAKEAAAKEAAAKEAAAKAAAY
# measurementNotes: scFv ELISA
readoutLabel: OD450

# binder, observedValue
rows = [
    ("PcOxP_DB01_B07 (scFv, V domains shown, scFv in periplasmic extract) VH: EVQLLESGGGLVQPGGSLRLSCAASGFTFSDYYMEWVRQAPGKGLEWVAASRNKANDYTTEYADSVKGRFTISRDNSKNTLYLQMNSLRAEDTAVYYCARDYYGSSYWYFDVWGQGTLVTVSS VL: DIQMTQSPSSLSASVGDRVTITCTASESLYSSKHKVHYLAWYQQKPGKAPKLLIYGASNRYIGVPSRFSGSGSGTDFTLTISSLQPEDFATYYCAQFYSYPLTFGGGTKVEIK", "0.05 OD450"),
    ("PcOxP_DB02_E01 (scFv, V domains shown, scFv in periplasmic extract) VH: EVQLLESGGGLVQPGGSLRLSCAASGFTFSDQYMEWVRQAPGKGLEWVAASRNKANDYTTEYADSVKGRFTISRDNSKNTLYLQMNSLRAEDTAVYYCARDYYGSSYWYFDVWGQGTLVTVSS VL: DIQMTQSPSSLSASVGDRVTITCTASESLYSSKHKVHYLAWYQQKPGKAPKLLIYGASGRYIGVPSRFSGSGSGTDFTLTISSLQPEDFATYYCAQFYSYPLTFGGGTKVEIK", "0.1 OD450"),
]

Q: Requested field: OD450. Item: PcOxP_DB01_C08 (scFv, V domains shown, scFv in periplasmic extract) VH: EVQLLESGGGLVQPGGSLRLSCAASGFTFSDGYMEWVRQAPGKGLEWVAASRNKANDYTTEYADSVKGRFTISRDNSKNTLYLQMNSLRAEDTAVYYCARDYYASSYWYFDVWGQGTLVTVSS VL: DIQMTQSPSSLSASVGDRVTITCRASESISSSKNKVHYLAWYQQKPGKAPKLLIYGASNRYYGVPSRFSGSGSGTDFTLTISSLQPEDFATYYCAQFYSYPLTFGGGTKVEIK
Result: 0.05 OD450
